Molecular target: D4 receptor
Test: dopamine D4 receptor binding assay (3H-YM 09151-2)
Settings: 0.5 nM 3H-YM 09151-2; COS cells with recombinantly produced D4 receptors; Table 2: rat striatal homogenates
pKi: −log10 of the molar value. Counter-ions that a name gives are not always drawn.
Outcome Measure: pKi

Compound: c1ccc(-c2ncc(CN3CCN(c4ccc5c(n4)CCCC5)CC3)[nH]2)cc1 [Compound 1a, hydrobromide]
Value: 7.85

Compound: Fc1ccccc1-c1ncc(CN2CCN(c3ccc4ccccc4n3)CC2)[nH]1 [Compound 3a, oxalate]
Value: 7.77

Compound: c1ccc(-c2ncc(CN3CCN(c4ccc5ccccc5n4)CC3)[nH]2)cc1 [Compound 2a, hydrobromide]
Value: 8.05
